Multi-source literature compilation: Kd on Fibroblast growth factor 1 (Homo sapiens, UniProt P05230).
Sequence (P05230 whole entry): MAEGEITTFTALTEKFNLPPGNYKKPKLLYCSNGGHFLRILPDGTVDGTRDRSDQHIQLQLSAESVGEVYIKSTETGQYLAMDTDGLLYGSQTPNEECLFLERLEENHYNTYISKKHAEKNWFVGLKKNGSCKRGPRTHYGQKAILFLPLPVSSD
A number alone suffices; assume µM.

>  <molecule>
CO[C@H]1O[C@@H](COCC(=O)N(CC(=O)NCCO[C@H]2O[C@@H](COS(=O)(=O)O)[C@@H](OS(=O)(=O)O)[C@H](OS(=O)(=O)O)[C@H]2OS(=O)(=O)O)Cc2ccccc2)[C@@H](OS(=O)(=O)O)[C@H](OS(=O)(=O)O)[C@H]1OS(=O)(=O)O

>  <unit-info>
µM

>  <Kd>
4.84

$$$$
>  <molecule>
O=S(=O)(O)OC[C@H]1OCC[C@@H](OCCCOc2ccccc2)C1OS(=O)(=O)O (stereo partly drawn)

>  <unit-info>
µM

>  <Kd>
3250

$$$$
>  <molecule>
O=S(=O)(O)OC[C@H]1OCC[C@@H](OCc2ccccc2)C1OS(=O)(=O)O (stereo partly drawn)

>  <unit-info>
µM

>  <Kd>
3410

$$$$
>  <molecule>
CO[C@@H]1CCO[C@H](COS(=O)(=O)O)C1OS(=O)(=O)O (stereo partly drawn)

>  <unit-info>
µM

>  <Kd>
5940

$$$$
>  <molecule>
OC[C@H]1O[C@H](O[C@@H]2[C@H](O)[C@@H](O[C@@H]3[C@H](O)[C@@H](O[C@@H]4[C@H](O)[C@@H](O[C@@H]5[C@@H](OCc6ccccc6)O[C@H](CO)[C@@H](O)[C@@H]5O)O[C@H](CO)[C@H]4O)O[C@H](CO)[C@H]3O)O[C@H](CO)[C@H]2O)[C@@H](O)[C@@H](O)[C@@H]1O

>  <unit-info>
µM

>  <Kd>
0.00012

$$$$
>  <molecule>
CO[C@H]1O[C@H](CNC(=O)CN(Cc2ccccc2)C(C)=O)[C@@H](OS(=O)(=O)O)[C@H](OS(=O)(=O)O)[C@@H]1OS(=O)(=O)O

>  <unit-info>
µM

>  <Kd>
140

$$$$

Enquiry: Given the entry O=C(CN(Cc1ccccc1)C(=O)C1OC(OS(=O)(=O)O)C(OS(=O)(=O)O)C(OS(=O)(=O)O)C1OS(=O)(=O)O)NC1CCCCC1 (stereo not drawn) , report its measured Kd.
Return: 120

Enquiry: Next record, please: `CC(=O)N(CC(=O)NCCO[C@H]1O[C@@H](COS(=O)(=O)O)[C@@H](OS(=O)(=O)O)[C@H](OS(=O)(=O)O)[C@H]1OS(=O)(=O)O)Cc1ccccc1`
Return: 34.3

Enquiry: Next record, please: C=CCOC1C(C)OC(OC)C(OS(=O)(=O)O)C1OS(=O)(=O)O (stereo not drawn)
Return: 1340

Enquiry: Next record, please: `CO[C@H]1O[C@H](CNC(=O)CNC(=O)Cc2cccc(Cl)c2)[C@@H](OS(=O)(=O)O)[C@H](OS(=O)(=O)O)[C@@H]1OS(=O)(=O)O`
Return: 37

Enquiry: Next record, please: `CO[C@@H]1OC[C@@H](O[C@H]2O[C@H](CO)[C@H](O)[C@H](O)[C@H]2OS(=O)(=O)O)[C@H](OS(=O)(=O)O)[C@H]1OS(=O)(=O)O`
Return: 1400

Enquiry: Next record, please: O=S(=O)(O)OC[C@@H]1O[C@@H](O[C@H]2[C@H](OS(=O)(=O)O)[C@H](OS(=O)(=O)O)C(OS(=O)(=O)O)O[C@H]2COS(=O)(=O)O)[C@@H](OS(=O)(=O)O)[C@H](OS(=O)(=O)O)[C@H]1OS(=O)(=O)O (stereo partly drawn)
Return: 1.2

Enquiry: Next record, please: `CCN(CC(=O)NC[C@H]1O[C@H](OC)[C@@H](OS(=O)(=O)O)[C@@H](OS(=O)(=O)O)[C@@H]1OS(=O)(=O)O)C(=O)CCCc1ccccc1`
Return: 500
